# Lookup of reported melting point keyed by entry
ASSAY_METRIC: melting point

INSERT INTO measurements (smiles_representation, measured_value) VALUES
  ('Cc1oc(-c2ccccc2)nc1CCOc1ccc(C=CC#N)cc1', '112 to 113 °C'),
  ('Cc1cn(-c2ccc([N+](=O)[O-])c(C)c2)c(C)n1', '136 to 138 °C'),
  ('CCOC(=O)N(N)c1ccc(C)cc1', '35 °C'),
  ('CCCCc1nc(CCCC)n(Cc2ccc(-c3ccccc3C(=O)O)cc2)n1', '134 to 135 °C');

###

ASSAY_METRIC: melting point

INSERT INTO results (compound, assay_metric, measured_value) VALUES
  ('CC(C)c1nn(-c2ncc(C#N)cn2)cc1CCCO', 'melting point', '153 to 154 °C'),
  ('O=C(O)Cc1ccc(-n2cccn2)c(Br)c1', 'melting point', '100 to 101 °C'),
  ('COc1ccsc1-c1nsc2ccc(N3C(=O)C4=C(CCCC4)C3=O)cc12', 'melting point', '146 to 149 °C'),
  ('COc1cccc(-c2cccc(OC3SCC(OC(C)=O)C(OC(C)=O)C3OC(C)=O)c2)n1 (stereo not given)', 'melting point', '195 °C'),
  ('O=C(O)c1c(C(F)(F)F)ccc(Cl)c1Cl', 'melting point', '88 to 89 °C'),
  ('O=C1c2ccccc2COc2ccc(CC(=O)N(O)C3CCCCC3)cc21', 'melting point', '130 to 131 °C'),
  ('CCN1c2ncccc2C(=O)Nc2c(C)cc(NCCCO)nc21', 'melting point', '222 to 224 °C'),
  ('CC(C)(C)C(=O)C(Cc1cccnc1)Oc1ccc(Cl)cc1 (stereo not given)', 'melting point', '77 to 79 °C'),
  ('O=C(N1CCCC1)C1(N2CCCCC2)CCNCC1', 'melting point', '144 °C'),
  ('CCC1(CC(=O)O)CCCc2c1n(C)c1ccccc21 (stereo not given)', 'melting point', '140 to 143 °C'),
  ('NN=CNCC(=O)NC1CCCCC1', 'melting point', '232 to 234 °C'),
  ('O=C(c1ccncc1)c1cc(-c2ccc(Cl)cc2)c(N2CCOCC2)s1', 'melting point', '117 °C'),
  ('O=C(Cl)COc1ccc([N+](=O)[O-])cc1', 'melting point', '84 to 85 °C'),
  ('CC[C@H](C)[C@H](NC(=O)OCc1ccccc1)C(=O)Nc1nncs1 (racemic)', 'melting point', '145 to 149 °C'),
  ('COCCOCCOCc1c(Br)c(Br)c(Br)c(Br)c1Br', 'melting point', '83 °C');

###

# key: entry, value: melting point
ASSAY_METRIC: melting point

INSERT INTO measurements (compound, measured_value) VALUES
  ('CCOC(=O)NNC=Nc1nc(-c2ccc3c(c2)CCCC3)cs1', '134 to 135 °C'),
  ('COC(=O)c1ccc(-c2ccc3cc4c(cc3c2)C(C)(C)CCC4(C)C)cc1O', '145 to 146 °C'),
  ('CNc1nc(C)c(-c2ccnc(Nc3cccc(S(=O)(=O)NCCOC)c3)n2)s1', '205 to 206 °C'),
  ('Cc1cc(CCCCCOc2ccc(C(N)=S)cc2)on1', '156 to 158 °C'),
  ('O=C(NC1CCCC1)c1ccc(F)c2c1CC(N(CCCc1c[nH]c3ccc(F)cc13)C1CCC1)CO2 (configuration not stated)', '133 °C'),
  ('CN(C)C1CCN(C(=O)c2ccc(-c3[nH]nc4c3C(=O)c3c(NC(=O)NN5CCOCC5)cccc3-4)s2)C1 (configuration not stated)', '216 to 217 °C'),
  ('N#CC1(NCC2CCCCC2)CCN(Cc2ccccc2)CC1', '128 to 130 °C');

Where do these numbers come from? They come from a melting point compilation (Tetko et al.; mined from patent text by program, amines drawn as free bases though some values may be those of a salt).
